System: NRG-mice bearing LNCaP tumors
Assay: Biodistribution (and PET/SPECT imaging) in NRG-mice bearing LNCaP tumors
Type: in vivo
Details: 72 h p.i., Avg
Description: LNCaP cell line was obtained from ATCC (LNCaP clone FGC, CRL-1740). It was established from a metastatic site of left supraclavicular lymph node of human prostatic adenocarcinoma. […] The collected cells number was counted with a Hausser Scientific (Horsham, PA) Hemacytometer. […] PET imaging experiments were conducted using Siemens Inveon micro PET/CT scanner. […] Then, a 10-min static PET imaging or a one hour (30 min×2 frames) of static SPECT scan was performed to determined uptake in tumor and other organs. […]
*1 amine or outer side, *2 acyl side, *3 side chain or, on linkers, in order; H or OH if unused. Where a SMILES comes first, the peptide text is derived from it. [ ]: non-standard residue; d: D form. The star is where a group is joined. ξ: configuration not given here. ξLys(Nα-CO-ξAad) = O=C(O)CCCC(NC(=O)NC(CCCCN*)C(=O)O)C(=O)O; Butanoyl(4-(4-NO2Ph)) = O=C(CCCc1ccc([N+](=O)[O-])cc1)*; DOTA = O=C(O)CN1CCN(CC(=O)O)CCN(CC(=O)*)CCN(CC(=O)O)CC1; Butanoyl(4-(4-MeO-phenyl)) = COc1ccc(CCCC(=O)*)cc1; ξAla(9-anthryl) = NC(Cc1c2ccccc2cc2ccccc12)C(=O)O; X2 = O=C(NC(CCCCN*)C(=O)O)NC(CC(F)C(=O)O)C(=O)O; X1 = O=C(C1CCC(CN[*:1])CC1)[*:2]; ξK = NCCCCC(N)C(=O)O
MEASURED METRIC: Biodistribution: Stomach (% ID/g)

COMPOUND	MEASURED VALUE
COc1ccc(CCCC(=O)NCC(=O)NC(CCCCNC(=O)CN2CCN(CC(=O)[O-])CCN(CC(=O)[O-])CCN(CC(=O)[O-])CC2)C(=O)NCC(=O)NCC2CCC(C(=O)NC(Cc3c4ccccc4cc4ccccc34)C(=O)NCCCCC(NC(=O)NC(CC(F)C(=O)O)C(=O)O)C(=O)O)CC2)cc1.[177Lu+3] (stereo not shown) [^177Lu-CCZ02008] ({Butanoyl(4-(4-MeO-phenyl))}-G[ξK](DOTA)G[X1][ξAla(9-anthryl)]-X2)	0.18
O=C([O-])CN1CCN(CC(=O)[O-])CCN(CC(=O)NCCCCC(NC(=O)CNC(=O)CCCc2ccc([N+](=O)[O-])cc2)C(=O)NCC(=O)NCC2CCC(C(=O)NC(Cc3c4ccccc4cc4ccccc34)C(=O)NCCCCC(NC(=O)NC(CCCC(=O)O)C(=O)O)C(=O)O)CC2)CCN(CC(=O)[O-])CC1.[225Ac+3] (stereo not shown) [^225Ac-CCZ02017] ({Butanoyl(4-(4-NO2Ph))}-G[ξK](DOTA)G[X1][ξAla(9-anthryl)]-{ξLys(Nα-CO-ξAad)})	0.06
COc1ccc(CCCC(=O)NCC(=O)NC(CCCCNC(=O)CN2CCN(CC(=O)[O-])CCN(CC(=O)[O-])CCN(CC(=O)[O-])CC2)CC(=O)NCC2CCC(C(=O)NC(Cc3c4ccccc4cc4ccccc34)C(=O)NCCCCC(NC(=O)NC(CC(F)C(=O)O)C(=O)O)C(=O)O)CC2)cc1.[177Lu+3] (stereo not shown) [^177Lu-CCZ02019]	0.15
O=C([O-])CN1CCN(CC(=O)[O-])CCN(CC(=O)NCCCCC(NC(=O)CNC(=O)CCCc2ccc([N+](=O)[O-])cc2)C(=O)NCC(=O)NCC2CCC(C(=O)NC(Cc3c4ccccc4cc4ccccc34)C(=O)NCCCCC(NC(=O)NC(CCCC(=O)O)C(=O)O)C(=O)O)CC2)CCN(CC(=O)[O-])CC1.[177Lu+3] (stereo not shown) [^177Lu-CCZ02017] ({Butanoyl(4-(4-NO2Ph))}-G[ξK](DOTA)G[X1][ξAla(9-anthryl)]-{ξLys(Nα-CO-ξAad)})	0.04
